molecular target: T1, mouse vascular endothelial growth factor receptor-2 Fc chimera (Flk-1-Fc) (mouse, UniProt P35918 20-762); experiment: radioactive equilibrium binding assay, Flk-1-Fc
T1 construct: Bought from R&D Systems; also called mouse VEGFR-2; not shown: Fc part of the purchased chimera, not specified
T1 sequence (P35918 20-762, change not shown): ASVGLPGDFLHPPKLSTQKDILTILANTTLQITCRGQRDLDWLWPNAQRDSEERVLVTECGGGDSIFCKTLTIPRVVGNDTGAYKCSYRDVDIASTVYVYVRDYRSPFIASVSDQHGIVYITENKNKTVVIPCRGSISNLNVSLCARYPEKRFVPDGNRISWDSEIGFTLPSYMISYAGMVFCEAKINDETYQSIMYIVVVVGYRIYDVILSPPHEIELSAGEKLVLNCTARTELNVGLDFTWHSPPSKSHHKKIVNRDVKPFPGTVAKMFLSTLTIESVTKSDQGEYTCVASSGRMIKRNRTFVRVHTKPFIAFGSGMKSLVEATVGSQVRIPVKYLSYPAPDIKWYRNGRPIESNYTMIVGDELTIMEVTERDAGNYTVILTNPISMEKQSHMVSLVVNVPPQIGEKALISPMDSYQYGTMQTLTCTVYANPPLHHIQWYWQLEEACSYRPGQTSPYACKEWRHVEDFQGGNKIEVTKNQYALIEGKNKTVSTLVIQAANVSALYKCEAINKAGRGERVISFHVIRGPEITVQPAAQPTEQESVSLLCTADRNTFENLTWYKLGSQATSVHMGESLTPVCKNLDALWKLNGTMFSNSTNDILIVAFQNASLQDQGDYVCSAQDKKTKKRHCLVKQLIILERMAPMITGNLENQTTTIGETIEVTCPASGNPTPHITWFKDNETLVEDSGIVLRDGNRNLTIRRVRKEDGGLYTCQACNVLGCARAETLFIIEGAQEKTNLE

BINDER	Kd
E9 (designed binder, 10Fn3 clone, Del 1-8) EVVAATPTSLLISWRHPHFPTRYYRITYGETGGNSPVQEFTVPLQPPTATISGLKPGVDYTITGYAVTEERNGRTLRTPISINYRT	1.4 nM
E6 (designed binder, 10Fn3 clone, Del 1-8) EVVAATPTSLLISWRHPHFPTRYYRITYGETGGNSPVQEFTVPLQPPTATISGLKPGVDYTITGYAVTDGWNGRLLSIPISINYRT	7.1 nM
E29 (designed binder, 10Fn3 clone, Del 1-8) EVVAATPTSLLISWRHPHFPTRYYRITYGETGGNSPVQEFTVPLQPPTATISGLKPGVDYTITGYAVTVERNGRVLMTPISINYRT	0.91 nM
E5 (designed binder, 10Fn3 clone, Del 1-8) EVVAATPTSLLISWRHPHFPTRYYRITYGETGGNSPVQEFTVPLQPPTATISGLKPGVDYTITGYAVTDGQNGRLLNVPISINYRT	3.2 nM
E26 (designed binder, 10Fn3 clone, Del 1-8) EVVAATPTSLLISWRHPHFPTRYYRITYGETGGNSPVQEFTVPLQPPTATISGLKPGVDYTITGYAVTVERNGRELMTPISINYRT	2.05 nM
